Where do the numbers come from? From patent US20210324080A1.

Target: T1, human CTLA-4 (Y201V), full length, on transfected cells (human, UniProt P16410 36-223)
T1 construct: whole, on cells; also called hCTLA-4; HEK293-hCTLA-4 (Y201V)
T1 sequence (looked up): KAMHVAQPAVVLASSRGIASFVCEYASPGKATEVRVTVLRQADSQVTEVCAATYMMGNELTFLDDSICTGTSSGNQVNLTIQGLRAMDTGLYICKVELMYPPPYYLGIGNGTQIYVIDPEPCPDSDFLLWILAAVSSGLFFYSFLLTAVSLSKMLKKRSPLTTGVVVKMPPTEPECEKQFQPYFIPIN
Test: FACS, CHOK1-hCTLA-4 cells
Reported MFI at 0.67 nM values follow for various binders
observedProperty: MFI at 0.67 nM

binder="97A8D1 (chimeric antibody purified from hybridoma supernatant) (antibody, V domains shown, also called mAb49; mAb049) VH: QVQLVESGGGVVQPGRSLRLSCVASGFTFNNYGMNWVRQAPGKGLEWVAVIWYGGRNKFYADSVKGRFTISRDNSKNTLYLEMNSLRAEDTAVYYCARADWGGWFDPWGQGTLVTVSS VL: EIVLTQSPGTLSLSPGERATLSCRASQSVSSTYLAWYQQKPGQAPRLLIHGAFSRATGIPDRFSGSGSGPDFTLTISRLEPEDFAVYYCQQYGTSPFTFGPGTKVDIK" observedproperty="MFI at 0.67 nM" valueobserved=116
binder="31C12F3 (chimeric antibody purified from hybridoma supernatant) (antibody, V domains shown, also called mAb010) VH: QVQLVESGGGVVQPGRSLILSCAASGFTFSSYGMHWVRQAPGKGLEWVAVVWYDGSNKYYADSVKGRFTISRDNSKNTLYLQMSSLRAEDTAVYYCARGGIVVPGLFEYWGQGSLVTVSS VL: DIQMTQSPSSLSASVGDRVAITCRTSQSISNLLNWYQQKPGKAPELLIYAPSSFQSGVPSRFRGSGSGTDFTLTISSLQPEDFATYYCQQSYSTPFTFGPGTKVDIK" observedproperty="MFI at 0.67 nM" valueobserved=95
binder="40C4C6 (chimeric antibody purified from hybridoma supernatant) (antibody, V domains shown, also called mAb09; mAb009) VH: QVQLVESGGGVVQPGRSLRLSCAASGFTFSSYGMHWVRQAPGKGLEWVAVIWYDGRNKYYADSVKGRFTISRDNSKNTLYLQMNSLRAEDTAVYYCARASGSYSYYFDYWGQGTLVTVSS VL: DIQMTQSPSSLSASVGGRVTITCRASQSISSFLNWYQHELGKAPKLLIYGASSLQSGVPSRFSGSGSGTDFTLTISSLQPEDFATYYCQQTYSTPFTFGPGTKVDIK" observedproperty="MFI at 0.67 nM" valueobserved=146
binder="92C8B6 (chimeric antibody purified from hybridoma supernatant) (antibody, V domains shown, also called mAb42; mAb042) VH: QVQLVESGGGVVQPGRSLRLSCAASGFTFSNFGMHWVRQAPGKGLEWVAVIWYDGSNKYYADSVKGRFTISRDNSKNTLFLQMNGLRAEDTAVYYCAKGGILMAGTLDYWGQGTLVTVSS VL: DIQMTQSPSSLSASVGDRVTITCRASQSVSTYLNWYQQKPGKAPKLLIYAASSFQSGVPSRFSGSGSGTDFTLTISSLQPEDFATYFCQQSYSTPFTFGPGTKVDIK" observedproperty="MFI at 0.67 nM" valueobserved=154
